Test: Cytotoxicity assay on HMEC-1 cell line (MTT)
Assay type: cell-based, human
Settings: human, HMEC-1 cells; HMEC-1, MTT, 72 h
Description: The long-term human microvascular endothelial cell line (HMEC-1) was maintained in MCDB 131 medium supplemented with 10% fetal calf serum, 10 ng/mL of epidermal growth factor, 1 µg/mL of hydrocortisone, 2 mM glutamine and 20 mM Hepes buffer. For the cytotoxicity assays, cells were treated with serial dilutions of test compounds and cell proliferation evaluated using the MTT assay. […]
Recorded IC50 at 72 h by entry
Dear colleague, please return just the value in µM, with no unit written.

{"compound": "CC(C)(C)CCNC(=O)C1Cc2c([nH]c3ccccc23)C(c2ccc(Cl)cc2)N1 (centres unmarked)", "outcome measure": "IC50 at 72 h", "measured value": 17.9}
{"compound": "CC1NC(C(=O)N2CCCCC2)Cc2c1[nH]c1ccccc21 (centres unmarked)", "outcome measure": "IC50 at 72 h", "measured value": 157}
{"compound": "O=C(NCCCN1CCOCC1)C1Cc2c([nH]c3ccccc23)C(c2ccc(Cl)cc2)N1 (centres unmarked)", "outcome measure": "IC50 at 72 h", "measured value": 102}
{"compound": "CCCCCCCCC1NC(C(=O)NCCC(C)(C)C)Cc2c1[nH]c1ccccc21 (centres unmarked)", "outcome measure": "IC50 at 72 h", "measured value": 72}
{"compound": "CC(C)(C)CC(C)(C)NC(=O)C1Cc2c([nH]c3ccccc23)C(c2ccc(Cl)cc2)N1 (centres unmarked)", "outcome measure": "IC50 at 72 h", "measured value": 18.9}

Query: Check the records and state IC50 at 72 h for O=C(NC1CCCCC1)[C@@H]1Cc2c([nH]c3ccccc23)[C@H](c2ccc(Cl)cc2)N1 (racemic)
Result: 53.8

Query: Check the records and state IC50 at 72 h for CCC1NC(C(=O)NC23CC4CC(CC(C4)C2)C3)Cc2c1[nH]c1ccccc21 (centres unmarked)
Result: 21.1
